target: human recombinant melanocortin-4 receptor (human) (UniProt P32245); experiment: competitive inhibition of Eu-NDP-α-MSH (TRF), hMC4-R HEK-293 membranes
Sequence (P32245 whole entry): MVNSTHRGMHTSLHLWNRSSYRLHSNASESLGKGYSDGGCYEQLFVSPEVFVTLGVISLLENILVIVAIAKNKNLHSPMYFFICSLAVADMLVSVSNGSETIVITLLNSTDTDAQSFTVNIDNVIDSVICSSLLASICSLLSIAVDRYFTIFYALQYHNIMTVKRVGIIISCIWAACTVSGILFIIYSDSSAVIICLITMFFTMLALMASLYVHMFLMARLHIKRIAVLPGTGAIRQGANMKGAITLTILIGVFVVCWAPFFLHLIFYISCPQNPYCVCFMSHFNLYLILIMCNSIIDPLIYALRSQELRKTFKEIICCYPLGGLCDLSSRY
Let's look at some binders and their measured Ki.
Property measured: Ki

{"Binder": "RXXFRWX (N-acetyl; X2 = hGlu; X3 = Dab; D-Phe 4; X7 = Dab; side-chain lactam hGlu2-Dab7; C-terminal amide) [Ac-Arg-cyclo(hGlu-Dab-D-Phe-Arg-Trp-Dab)-NH2]", "Experimental value": "2 nM"}
{"Binder": "RXXFRWX (N-acetyl; X2 = Dab; X3 = Dab; D-Phe 4; X7 = hGlu; side-chain lactam Dab2-hGlu7; C-terminal amide) [Ac-Arg-cyclo(Dab-Dab-D-Phe-Arg-Trp-hGlu)-NH2]", "Experimental value": "4 nM"}
